System: S. aureus USA300
Assay type: cell-based, Staphylococcus aureus
Settings: microbroth dilution per CLSI, MHB, 18 h at 37 °C, visual inspection, three technical replicates
Where a SMILES comes first, the peptide text is derived from it. [ ]: non-standard residue; d: D form. The star is where a group is joined. Octanoyl(7-Me) = CC(C)CCCCCC(=O)*; dOrn = NCCC[C@@H](N)C(=O)O; Orn = NCCC[C@H](N)C(=O)O
experimental readout: Antibacterial activity (MIC) S. aureus USA300

- compound: "CC[C@H](C)[C@H](NC(=O)[C@H](CO)NC(=O)[C@H](Cc1c[nH]c2ccccc12)NC(=O)[C@@H](CCCN)NC(=O)CNC(=O)[C@H](CCCN)NC(=O)[C@@H](CCCN)NC(=O)[C@@H](Cc1c[nH]c2ccccc12)NC(=O)[C@@H](Cc1ccc(O)cc1)NC(=O)[C@@H](CO)NC(=O)CCCCCC(C)C)C(=O)N[C@@H](CC(N)=O)C(=O)NCC(=O)NCC(N)=O [LL(Ser9)-NH2 (46)] ({Octanoyl(7-Me)}-[dS][dY][dW][dOrn][Orn]G[dOrn]WSINGG-NH2)"
  result: ">32 µg/mL"
